Below, each of the molecules is paired with its reported inhibition value.
target-or-system: Mannose-6-phosphate isomerase (Homo sapiens)
method: MPI inhibition at elevated mannose 6-phosphate – biochemical, fluorescence intensity, high mannose 6-phosphate, primary screen (AID 1220)
measurement-conditions: recombinant PMI enzyme, coupled fluorescence intensity; at 20 µM; active compounds read high
The whole screen tested about 190,000 compounds, of which about 1,300 (0.68%) were called active. What follows is part of a selection rich in actives, with near analogues and random picks from the rest.
Give the number; % is assumed, so skip it.

IN: Please report inhibition with Mannose-6-phosphate isomerase (Homo sapiens) for item CCC(C)OC(=O)c1c(N)n(Cc2cccs2)c2nc3ccccc3nc12 (stereo unspecified) .
OUT: 8.2

IN: Please report inhibition with Mannose-6-phosphate isomerase (Homo sapiens) for item "O=[N+]([O-])[N-][n+]1cnn(Cc2ccccc2)c1" .
OUT: -10.9

IN: Please report inhibition with Mannose-6-phosphate isomerase (Homo sapiens) for item "CC(C)CCn1c(N)c(C(=O)NCc2cccs2)c2nc3ccccc3nc21" .
OUT: 59.5

IN: Please report inhibition with Mannose-6-phosphate isomerase (Homo sapiens) for item O=C1C2CCN(CC2)C1Cc1ccc(OCc2ccccc2)cc1 (stereo unspecified) .
OUT: 1.5

IN: Please report inhibition with Mannose-6-phosphate isomerase (Homo sapiens) for item "O=C1C(=O)c2ccccc2-c2ccccc21" .
OUT: 1.8

IN: Please report inhibition with Mannose-6-phosphate isomerase (Homo sapiens) for item "COc1cc(/C=C2/C(=O)NC(=O)N(c3ccccc3)C2=O)ccc1O" .
OUT: 1.2

IN: Please report inhibition with Mannose-6-phosphate isomerase (Homo sapiens) for item CC(C(=O)c1c[nH]c2ccccc12)N1CCc2ccccc2C1 (stereo unspecified) .
OUT: 6.1

IN: Please report inhibition with Mannose-6-phosphate isomerase (Homo sapiens) for item "CCn1nc(-c2ccccc2)nc2c(=O)n(C)c(=O)nc1-2" .
OUT: 7.6

IN: Please report inhibition with Mannose-6-phosphate isomerase (Homo sapiens) for item "COCCCn1c(N)c(C(=O)NCCC(C)C)c2nc3ccccc3nc21" .
OUT: 63.7

IN: Please report inhibition with Mannose-6-phosphate isomerase (Homo sapiens) for item "COCCNC(=O)c1c(N)n(CCC(C)C)c2nc3ccccc3nc12" .
OUT: 34.1

IN: Please report inhibition with Mannose-6-phosphate isomerase (Homo sapiens) for item "CN(C)[C@@H]1C(=O)C(C(N)=O)=C(O)[C@@]2(O)C(=O)C3=C(O)c4c(O)cccc4[C@@](C)(O)[C@H]3[C@H](O)[C@@H]12" .
OUT: 52.6

IN: Please report inhibition with Mannose-6-phosphate isomerase (Homo sapiens) for item CCOP(=O)(OCC)C(O)c1ccc(OC)c(OC)c1 (stereo unspecified) .
OUT: 2.3

* * *

target-or-system: Mannose-6-phosphate isomerase (Homo sapiens) (UniProt P34949)
Sequence (P34949 whole entry, looked up): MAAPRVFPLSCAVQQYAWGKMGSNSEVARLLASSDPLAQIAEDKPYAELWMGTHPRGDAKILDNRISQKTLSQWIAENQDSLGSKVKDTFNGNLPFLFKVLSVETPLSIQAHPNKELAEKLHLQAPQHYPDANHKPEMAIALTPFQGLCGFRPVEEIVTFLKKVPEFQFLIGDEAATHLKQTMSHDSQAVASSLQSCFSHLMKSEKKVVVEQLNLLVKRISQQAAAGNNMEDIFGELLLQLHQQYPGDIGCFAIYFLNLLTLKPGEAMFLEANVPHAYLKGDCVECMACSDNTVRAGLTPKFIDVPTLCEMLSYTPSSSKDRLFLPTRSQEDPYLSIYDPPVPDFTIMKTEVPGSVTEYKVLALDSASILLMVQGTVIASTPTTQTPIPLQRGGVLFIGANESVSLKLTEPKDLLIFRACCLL
method: MPI inhibition at elevated mannose 6-phosphate – biochemical, fluorescence intensity, high mannose 6-phosphate, primary screen (AID 1220)
measurement-conditions: recombinant PMI enzyme, coupled fluorescence intensity; at 20 µM
About 1,300 (0.68%) of roughly 190,000 compounds were called active. No stated cut-off is given here; in the data, active means inhibition above about 50%; inactive means the rest. This is one part of a sample in which actives are shown more often than they occur.
Choose one outcome from this list and give only that: TRUE for active, FALSE for inactive

As a guide, the following entries are already answered.
compound	discrete-label
O=[N+]([O-])c1ccc(C2C3C(c4ccccc4)=NC4(CCCC4)N32)cc1 (centres undefined)	FALSE
O=C1C=Cc2ccccc2C1=O	TRUE
CC(C)CNC(=O)c1c(N)n(Cc2ccco2)c2nc3ccccc3nc12	FALSE
CCCC1=C(C(=O)OCC)C2(C(=O)Nc3ccc(C)cc32)C(C#N)=C(N)O1 (centres undefined)	FALSE
CC(C)OCCCNC(=O)c1c(N)n(Cc2cccs2)c2nc3ccccc3nc12	TRUE
COC(=O)CC1=C(C(=O)OC)C2(C(=O)Nc3c(C)cccc32)C(C#N)=C(N)O1 (centres undefined)	FALSE
COCCCn1c(N)c(C(=O)Nc2sc3c(c2C(=O)OC)CCCC3)c2nc3ccccc3nc21	FALSE
Cc1ccnc(-n2c(-c3ccccc3)nc3ccccc3c2=O)c1	FALSE

Please look at the following compound next.
IN: Status in this test for "CCCCNC(=O)c1c(N)n(CCCOC)c2nc3ccccc3nc12" ?
OUT: FALSE
